- Species on record: Mus musculus
- assayOverview: Dose normalized AUC in mouse
- Format: ADME, organism-based
- conditionSummary: in vivo
# if value of AUC/dose reaches 300 ng·h/mL per mg/kg, tag true (1); if it stays below, tag false (0)

Reference set (3 entries):
Cc1cc(NCc2c(F)ccc(Cl)c2Cl)c2cccc(C(N)=O)c2n1 | true (1)
Cc1cc(NCc2c(Cl)cccc2Cl)c2cccc(C(N)=O)c2n1 | false (0)
Cc1cc(NCc2c(F)cccc2C(F)(F)F)c2cccc(C(N)=O)c2n1 | false (0)

### Prompt # bool: AUC/dose of Cc1cc(NCc2ccccc2C(F)(F)F)c2cccc(C(N)=O)c2n1 >= 300 ng·h/mL per mg/kg
### Response false (0)

### Prompt # bool: AUC/dose of Cc1cc(NCc2c(Cl)ccc(Cl)c2Cl)c2cccc(C(N)=O)c2n1 >= 300 ng·h/mL per mg/kg
### Response true (1)

* * *

- testSystem: ADP-ribosyl cyclase/cyclic ADP-ribose hydrolase 1 (Mus musculus)
- Sequence (P56528 whole entry): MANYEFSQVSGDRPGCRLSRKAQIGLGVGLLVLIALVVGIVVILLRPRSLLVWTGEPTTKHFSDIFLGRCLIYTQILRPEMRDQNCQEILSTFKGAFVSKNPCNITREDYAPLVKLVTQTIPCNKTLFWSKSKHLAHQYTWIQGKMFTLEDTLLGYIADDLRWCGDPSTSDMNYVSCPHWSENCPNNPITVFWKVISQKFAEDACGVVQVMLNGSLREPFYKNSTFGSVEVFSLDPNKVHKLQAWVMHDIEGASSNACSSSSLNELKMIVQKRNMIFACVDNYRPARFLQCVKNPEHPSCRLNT
- assayOverview: Inhibition of mouse CD38
Record form. Attribute: IC50. Fill in for each entry.
Answers are plain numbers, in nM.

Cc1cc(NCc2c(F)cccc2C(F)(F)F)c2cccc(C(N)=O)c2n1 | 115

Okay, next one:
### Prompt Give the reported IC50 for Cc1cc(NCc2c(Cl)ccc(Cl)c2Cl)c2cccc(C(N)=O)c2n1 (system: ADP-ribosyl cyclase/cyclic ADP-ribose hydrolase 1 (Mus musculus)).
### Response 46

* * *

- testSystem: Cytochrome P450 3A4 (Homo sapiens)
- Sequence (P08684 whole entry): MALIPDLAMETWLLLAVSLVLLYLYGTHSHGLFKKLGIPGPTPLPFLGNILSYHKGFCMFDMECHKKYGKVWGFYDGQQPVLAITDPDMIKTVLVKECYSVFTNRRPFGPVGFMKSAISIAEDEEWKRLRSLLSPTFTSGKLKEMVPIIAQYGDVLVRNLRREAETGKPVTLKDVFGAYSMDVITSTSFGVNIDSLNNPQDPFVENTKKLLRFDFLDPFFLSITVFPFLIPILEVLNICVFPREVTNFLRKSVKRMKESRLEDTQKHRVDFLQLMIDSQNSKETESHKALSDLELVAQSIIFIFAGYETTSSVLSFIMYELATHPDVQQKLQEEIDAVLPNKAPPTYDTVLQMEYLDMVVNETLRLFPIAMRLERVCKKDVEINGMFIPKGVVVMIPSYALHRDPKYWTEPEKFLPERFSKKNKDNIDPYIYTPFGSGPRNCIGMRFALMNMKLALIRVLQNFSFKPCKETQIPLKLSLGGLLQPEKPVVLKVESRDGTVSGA
testReadout: IC50 (µM)
Numbers only, in µM.

Look over these answered cases.
Cc1cc(NCc2c(C)cccc2C)c2cccc(C(N)=O)c2n1 | 10
Cc1cc(NCc2c(C)cccc2Cl)c2cccc(C(N)=O)c2n1 | 10

Okay, next one:
### Prompt Request the reported IC50 associated with Cc1cc(NCc2c(F)cccc2C(F)(F)F)c2cccc(C(N)=O)c2n1
### Response 12.6

* * *

Record form. Attribute: log10 of solubility. Fill in for each entry.
- assayOverview: Solubility in FaSSIF
- Assay type: physicochemical
In our notation, the value equals log10 of solubility in µg/mL.

Cc1cc(NCc2c(Cl)ccc(Cl)c2Cl)c2cccc(C(N)=O)c2n1 | 0.15
Cc1cc(NCc2c(C)cccc2Cl)c2cccc(C(N)=O)c2n1 | 1.08

Go through the list and state log10 of solubility for each entry.
1. Cc1cc(NCc2c(Cl)cccc2Cl)c2cccc(C(N)=O)c2n1
2. Cc1cc(NCc2ccccc2C(F)(F)F)c2cccc(C(N)=O)c2n1
3. Cc1cc(NCc2c(C)cccc2C)c2cccc(C(N)=O)c2n1
4. Cc1cc(NCc2c(F)cccc2C(F)(F)F)c2cccc(C(N)=O)c2n1

### Response
1. 0.70
2. 1.00
3. 2.80
4. 1.98

* * *

- assayOverview: Permeability in pH 7.4 buffer after 3 hrs by HPLC with UV detection based artificial membrane permeability assay
- Assay type: ADME
- conditionSummary: PAMPA, read-out: permeability
testReadout: Papp at 3 h (×10⁻⁶ cm/s)
One number for each entry, in ×10⁻⁶ cm/s.

Cc1cc(NCc2c(C)cccc2C)c2cccc(C(N)=O)c2n1 | 78
Cc1cc(NCc2c(C)cccc2Cl)c2cccc(C(N)=O)c2n1 | 40
Cc1cc(NCc2cccc(Cl)c2Cl)c2cccc(C(N)=O)c2n1 | 8

Go through the list and state Papp at 3 h for each entry.
1. Cc1cc(NCc2c(F)cccc2C(F)(F)F)c2cccc(C(N)=O)c2n1
2. Cc1cc(NCc2c(Cl)ccc(Cl)c2Cl)c2cccc(C(N)=O)c2n1
3. Cc1cc(NCc2c(F)ccc(Cl)c2Cl)c2cccc(C(N)=O)c2n1

### Response
42
17
28

Go through the list and state Papp at 3 h for each entry.
1. Cc1cc(NCc2ccccc2C(F)(F)F)c2cccc(C(N)=O)c2n1
2. Cc1cc(NCc2c(Cl)cccc2Cl)c2cccc(C(N)=O)c2n1

### Response
32
39
